biological target: MBP-hNAA80 (Homo sapiens, UniProt Q93015); construct: made in house; host or cells: Escherichia coli BL21 star; assay: In vitro DTNB Nt-acetyltransferase inhibitor assay; assay type: biochemical; details: 300 μM Ac-CoA, 300 μM substrate peptide, Tris pH 8.5, triplicates, ± standard deviation
Sequence (Q93015 whole entry): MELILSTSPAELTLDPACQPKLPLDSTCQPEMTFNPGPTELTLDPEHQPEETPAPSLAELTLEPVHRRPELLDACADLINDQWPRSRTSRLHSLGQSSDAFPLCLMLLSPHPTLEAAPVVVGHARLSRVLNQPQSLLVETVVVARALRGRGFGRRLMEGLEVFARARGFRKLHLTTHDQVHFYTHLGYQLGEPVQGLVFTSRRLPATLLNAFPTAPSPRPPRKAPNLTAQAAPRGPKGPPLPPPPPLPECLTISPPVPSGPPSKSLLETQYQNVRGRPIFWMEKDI
*1 amine or outer side, *2 acyl side, *3 side chain or, on linkers, in order; H or OH if unused. Where a SMILES comes first, the peptide text is derived from it. [ ]: non-standard residue; d: D form. The star is where a group is joined. Pantoyl(4-O-3'-P-ADP) = CC(C)(COP(=O)(O)OP(=O)(O)OC[C@H]1O[C@@H](n2cnc3c(N)ncnc32)[C@H](O)[C@@H]1OP(=O)(O)O)[C@@H](O)C(=O)*; NHCH2CH2SCH2CO = O=C(CSCCN[*:1])[*:2]; βAla = NCCC(=O)O
Listed below: pIC50 values for each entry.
Would you please state pIC50, meaning minus log10 of the concentration in mol/L, as a bare number?

Example entries begin here.
# Compound, pIC50
rows = [
    ("CC[C@H](C)[C@H](NC(=O)[C@H](CCC(=O)O)NC(=O)[C@H](CC(=O)O)NC(=O)[C@H](CC(=O)O)NC(=O)CSCCNC(=O)CCNC(=O)[C@H](O)C(C)(C)COP(=O)(O)OP(=O)(O)OC[C@H]1O[C@@H](n2cnc3c(N)ncnc32)[C@H](O)[C@@H]1OP(=O)(O)O)C(N)=O [CoA-DDEI-NH2, CoA-Ac-DDEI-NH2] ({Pantoyl(4-O-3'-P-ADP)-βAla}-[NHCH2CH2SCH2CO]DDEI-NH2)", 5.57),
    ("CC(C)C[C@H](NC(=O)[C@H](CCC(=O)O)NC(=O)[C@H](CCC(=O)O)NC(=O)[C@H](CC(=O)O)NC(=O)CSCCNC(=O)CCNC(=O)[C@H](O)C(C)(C)COP(=O)(O)OP(=O)(O)OC[C@H]1O[C@@H](n2cnc3c(N)ncnc32)[C@H](O)[C@@H]1OP(=O)(O)O)C(N)=O [CoA-DEEL-NH2, CoA-Ac-DEEL-NH2] ({Pantoyl(4-O-3'-P-ADP)-βAla}-[NHCH2CH2SCH2CO]DEEL-NH2)", 5.33),
    ("CC(C)C[C@H](NC(=O)[C@H](CCC(N)=O)NC(=O)[C@H](CC(=O)O)NC(=O)[C@H](CCC(=O)O)NC(=O)CSCCNC(=O)CCNC(=O)[C@H](O)C(C)(C)COP(=O)(O)OP(=O)(O)OC[C@H]1O[C@@H](n2cnc3c(N)ncnc32)[C@H](O)[C@@H]1OP(=O)(O)O)C(N)=O [CoA-EDQL-NH2, CoA-Ac-EDQL-NH2] ({Pantoyl(4-O-3'-P-ADP)-βAla}-[NHCH2CH2SCH2CO]EDQL-NH2)", 6.07),
]

Ask: // lookup pIC50 for CC(C)C[C@H](NC(=O)[C@H](CCC(=O)O)NC(=O)[C@H](CO)NC(=O)[C@H](CCC(=O)O)NC(=O)CSCCNC(=O)CCNC(=O)[C@H](O)C(C)(C)COP(=O)(O)OP(=O)(O)OC[C@H]1O[C@@H](n2cnc3c(N)ncnc32)[C@H](O)[C@@H]1OP(=O)(O)O)C(N)=O [CoA-ESEL-NH2, CoA-Ac-ESEL-NH2] ({Pantoyl(4-O-3'-P-ADP)-βAla}-[NHCH2CH2SCH2CO]ESEL-NH2)
Reply: 4.94

Ask: Now this one: CC(C)C[C@H](NC(=O)[C@H](CCC(=O)O)NC(=O)[C@H](CC(=O)O)NC(=O)[C@@H]1CCCN1C(=O)CSCCNC(=O)CCNC(=O)[C@H](O)C(C)(C)COP(=O)(O)OP(=O)(O)OC[C@H]1O[C@@H](n2cnc3c(N)ncnc32)[C@H](O)[C@@H]1OP(=O)(O)O)C(N)=O [CoA-PDEL-NH2, CoA-Ac-PDEL-NH2] ({Pantoyl(4-O-3'-P-ADP)-βAla}-[NHCH2CH2SCH2CO]PDEL-NH2)
Reply: 4.87
